B1: Ribonuclease, P00648 (parent)
chain: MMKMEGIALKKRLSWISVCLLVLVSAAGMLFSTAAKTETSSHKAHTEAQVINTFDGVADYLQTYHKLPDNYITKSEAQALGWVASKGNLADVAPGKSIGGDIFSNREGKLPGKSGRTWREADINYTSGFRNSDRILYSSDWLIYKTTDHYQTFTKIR

Variants of: B1
Conditions: Bacillus amyloliquefaciens; pH 6.3; 25 °C; Urea; Fluorescence; MES 50 mM; reversible: yes; structure 1BNI; whole UniProt chain shown
unfolding free energy: recorded values

{"mutant-name": "D55A D59A R157A", "unfolding free energy [kcal/mol]": 10}
{"mutant-name": "D55A D59A", "unfolding free energy [kcal/mol]": 9.04}
{"mutant-name": "D59A", "unfolding free energy [kcal/mol]": 9.59}
{"mutant-name": "D55A", "unfolding free energy [kcal/mol]": 8.94}
{"mutant-name": "D59A R157A", "unfolding free energy [kcal/mol]": 10.4}
{"mutant-name": "D55A R157A", "unfolding free energy [kcal/mol]": 9.46}
{"mutant-name": "R157A", "unfolding free energy [kcal/mol]": 9.47}

# credit: FireProtDB (doi:10.1016/s0022-2836(99)80018-7)
